From: PubChem BioAssay (EPA / NIEHS)

read-out: Thyroid Hormone Responsive (THRSP), THRSP (gene 7069); experiment: LTEA_HepaRG_THRSP: Life Technologies and Expression Analysis (LTEA) Assay for Thyroid Hormone Responsive (THRSP) using HepaRG (AID 2283536); conditions: mRNA level, 48 h; actives raise or lower the signal
The source made the active and inactive calls. The calls were made as follows: active = hit-call score of the fitted dose curve at least 0.9, where 1 is the maximum; inactive = score below 0.9.
Field 'call' accepts active, inactive

>>> category_label("Oc1ccccc1Cl")
"inactive"
>>> category_label("O=[N+]([O-])c1ccc(Oc2ccc(Cl)cc2Cl)cc1")
"inactive"
>>> category_label("c1ccc(N=Nc2ccccc2)cc1")
"inactive"

Call for entry CC(C)N(Cc1ccccc1)C(=O)C(C)(C)C :
inactive

Test call for this compound, please: CC(O)CCO (stereo not drawn)
inactive

Assay result, entry Cn1cc(-c2ccccc2)c(=O)c(-c2cccc(C(F)(F)F)c2)c1 — outcome?
inactive

What classification did Cc1ccc(N)c(N)c1 end up with in this test?
inactive

For COC(=O)Nc1nc2ccccc2[nH]1 , which call appears in the assay record?
inactive

---

assay: ATG_FoxO_CIS: Attagene CIS-FACTORIAL HepG2 Assay for human Forkhead box O (FoxO) (AID 2282943); conditions: HepG2 Attagene cis-reporter, FoxO element, mRNA; actives raise or lower the signal
The source made the active and inactive calls. How the source made its calls: active means hit-call score of the fitted dose curve at least 0.9, where 1 is the maximum; inactive means score below 0.9.
Field 'call' accepts yes for active, no for inactive

As a guide, the following entries are already answered.
>>> category_label("Nc1ccc(Cc2ccc(N)cc2)cc1")
"no"
>>> category_label("Cc1cccc(N)c1N")
"no"
>>> category_label("C=CCc1ccc2c(c1)OCO2")
"no"
>>> category_label("C[N+](C)(C)CC1CO1 (configuration not stated)")
"no"
>>> category_label("Clc1ccc(C(c2ccc(Cl)cc2)C(Cl)Cl)cc1")
"no"

Hi, do you know how CC(O)CCO (configuration not stated) came out in this test?
no

Outcome logged for c1ccc2c(c1)oc1ccccc12 in this assay:
no

Tell me the assay call for Clc1ccccc1Cl please.
no

Recorded test outcome, item CCNS(=O)(=O)C(F)(F)C(F)(F)C(F)(F)C(F)(F)C(F)(F)C(F)(F)C(F)(F)C(F)(F)F
no

I would be grateful if you could indicate the recorded call for CC(C)(C)OOC(=O)c1ccccc1 .
yes

---

read-out: Plasminogen activator inhibitor-1 (PAI1), SERPINE1 (gene 5054); experiment: BSK_BE3C_PAI1: BioMAP Diversity Plus: BE3C Assay for Plasminogen activator inhibitor-1 (PAI1) Biomarker Activity (AID 2283037); settings: primary human bronchial epithelial cells; actives raise or lower the signal
Calls of active or inactive are those of the source. The calls were made as follows: active = hit-call score of the fitted dose curve at least 0.9, where 1 is the maximum; inactive = score below 0.9.
Select the matching outcome among TRUE for active, FALSE for inactive

>>> category_label("ClCCOCCCl")
"FALSE"
>>> category_label("CC(O)CCO (centres undefined)")
"FALSE"
>>> category_label("Cc1cc(N=Nc2ccccc2C)ccc1N")
"TRUE"
>>> category_label("N#CC(Br)Br")
"FALSE"
>>> category_label("C1=Cc2cccc3cccc1c23")
"FALSE"
>>> category_label("Cc1ccc(N)cc1")
"FALSE"
>>> category_label("Clc1ccccc1Cl")
"FALSE"
>>> category_label("CCCCCCCCn1sccc1=O")
"TRUE"

In this assay, the call recorded for Nc1ccc(Cc2ccc(N)cc2)cc1 was what?
FALSE

---

assay: Tanguay_ZF_120hpf_SWIM_legacy: (Legacy) Oregon State University Tanguay Lab 120 Hour Post-fertilization zebrafish Assay for Swim Bladder Malformation (AID 2283654);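 also: swim bladder malformation in each larva scored yes or no under brightfield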
Records with an inconclusive call do not appear. Calls of active or inactive are those of the source. The calls were made as follows: active = hit-call score of the fitted dose curve at least 0.9, where 1 is the maximum; inconclusive = response in the unintended direction; inactive = score below 0.9.
The reply should be one of these categories: TRUE (active), FALSE (inactive)

Record request — test call for CN(C)c1ccccc1
FALSE

For ClCCOCCCl , what call appears in the results of this test?
FALSE

---

read-out: growth arrest and DNA damage 45 (GADD45G), GADD45G (gene 10912); assay: LTEA_HepaRG_GADD45G: Life Technologies and Expression Analysis (LTEA) Assay for growth arrest and DNA damage 45 (GADD45G) using HepaRG (AID 2283499); settings: mRNA level, 48 h; actives raise or lower the signal
Activity calls are given as the source filed them. How the source made its calls: active means hit-call score of the fitted dose curve at least 0.9, where 1 is the maximum; inactive means score below 0.9.
Hello, when you answer, please use one of the following outcomes: True (active), False (inactive)

>>> category_label("CCOc1cccc(C2(N3CCN(c4ccccc4)CC3)CCC(C)CC2)c1 (stereo not drawn)")
"False"
>>> category_label("CCNS(=O)(=O)C(F)(F)C(F)(F)C(F)(F)C(F)(F)C(F)(F)C(F)(F)C(F)(F)C(F)(F)F")
"True"
>>> category_label("N#CC(Br)Br")
"False"
>>> category_label("CC(C)(C)OOC(C)(C)CCC(C)(C)OOC(C)(C)C")
"False"
>>> category_label("Cc1cc(N=Nc2ccccc2C)ccc1N")
"True"
>>> category_label("c1ccc(NNc2ccccc2)cc1")
"False"
>>> category_label("O=Cc1ccco1")
"False"
>>> category_label("Nc1ccc([N+](=O)[O-])cc1")
"False"
>>> category_label("CCCCCCCCCCCCCN1CC(C)OC(C)C1 (stereo not drawn)")
"False"
>>> category_label("c1ccc2c(c1)-c1cccc3cccc-2c13")
"False"

Status in this test for COC(=O)Nc1nc2ccccc2[nH]1 ?
False

What is the recorded call for this molecule in the test? Clc1ccc(Cl)c(Cl)c1
False

Just curious, what result did Nc1cc(Cl)cc(C(=O)O)c1Cl get here?
False

---

test: BSK_LPS_SRB: Viability Assessment in the BioMAP Diversity Plus: LPS Assay (AID 2283079); conditions: primary human HUVEC with PBMC;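 also: total protein by sulforhodamine B absorbance as a cytotoxicity measure; measured one day after compound addition; fitted in both directions against DMSO so loss or gain of signal counts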
Activity calls are given as the source filed them. The calls were made as follows: active = hit-call score of the fitted dose curve at least 0.9, where 1 is the maximum; inactive = score below 0.9.
Just give me one of these, please: active, inactive

# outcome recorded in this test, key = Cc1ccc(N=C=O)cc1N=C=O
inactive

# lookup: test call for C=CCc1ccc2c(c1)OCO2
inactive

Test call for this compound, please: CN(C)c1ccc(C(=O)c2ccc(N(C)C)cc2)cc1
active

// return assay outcome for O=[N+]([O-])c1ccc(Oc2ccc(Cl)cc2Cl)cc1
inactive

Answer briefly: the call reported for O=[N+]([O-])C(Br)(CO)CO in this assay.
active

Record request — test call for c1ccc(C2CO2)cc1 (stereo not given)
inactive

Dear colleague, could you share the recorded outcome for CCC12COCN1COC2 when you have a moment?
inactive

Which outcome was entered for the compound Oc1ccc2ccc3cccc4ccc1c2c34 in this test?
active

Recorded test outcome, item O=C1CCCO1
inactive

Assay result, entry C[C@]12C=CC3=C4CCC(=O)C=C4CC[C@H]3[C@@H]1CC[C@@H]2O — outcome?
inactive

So what was the verdict on Cc1ccc([N+](=O)[O-])cc1 in this test?
inactive

So what was the verdict on CCCCCCCCOC(=O)c1ccc(C(=O)OCCCCCCCC)c(C(=O)OCCCCCCCC)c1 in this test?
inactive

Hi, sorry to bother you, what did the test record for Nc1ccc(N=Nc2ccccc2)cc1 ?
inactive

Hi, sorry to bother you, what did the test record for CS(=O)(=O)NC(=O)c1cc(Oc2ccc(C(F)(F)F)cc2Cl)ccc1[N+](=O)[O-] ?
inactive

Tell me the recorded outcome of this test for ClC1=C(Cl)C2(Cl)C3C(Cl)C=CC3C1(Cl)C2(Cl)Cl (stereo not given) .
active

Recorded test outcome, item c1ccc(NNc2ccccc2)cc1
inactive

Write down the call the test reported for this compound. Item: Clc1ccc(C(c2ccc(Cl)cc2)C(Cl)(Cl)Cl)cc1
active

Which outcome was assigned to OCCCl in this test?
inactive

GET /call?item= Cc1cccc(N)c1N returns the recorded outcome of this test.
inactive

Could you check what this test reported for CCCCOC(=O)c1ccccc1C(=O)OCc1ccccc1 ?
inactive

Would you mind telling me which call this test gave O=P(OCCCl)(OCCCl)OCCCl ?
inactive

Which outcome did this test record for the compound CCN(CC)CCO ?
inactive

Test call, this compound: CC(C)COC(=O)c1ccccc1C(=O)OCC(C)C
inactive

Assay result, entry COc1cc(C=O)cc2c1[C@H](COC(N)=O)[C@]1(OC(C)=O)ON2C[C@H]2[C@@H]1N2C(C)=O — outcome?
active

Outcome logged for ClC1=C(Cl)[C@]2(Cl)[C@H]3[C@H]([C@@H]4C=C[C@H]3C4)[C@@]1(Cl)C2(Cl)Cl in this assay:
active

Hi, do you know how Nc1cc(Cl)cc(C(=O)O)c1Cl came out in this test?
inactive

Each compound tested received a call. Report the one for CCOc1cccc(C2(N3CCN(c4ccccc4)CC3)CCC(C)CC2)c1 (stereo not given) .
inactive

What is the recorded call for this compound in the test? Cc1ccc(N)cc1
inactive

Assay result, entry C[N+](C)(C)CC1CO1 (stereo not given) — outcome?
inactive

Which outcome was entered for the compound OCCCBr in this test?
inactive

---

Read-out: Tumor necrosis factor receptor 1 (TNFRSF1A), TNFRSF1A (gene 7132)
Experiment: LTEA_HepaRG_TNFRSF1A: Life Technologies and Expression Analysis (LTEA) Assay for Tumor necrosis factor receptor 1 (TNFRSF1A) using HepaRG (AID 2283535)
Conditions: mRNA level, 48 h; actives raise or lower the signal
Description: LTEA_HepaRG is a cell based, multiplexed-readout assay that uses HepaRG, a human liver cell line, with measurements taken at 48 hours after chemical dosing on a 96-well plate.LTEA_HepaRG_TNFRSF1A is one of 102 assay component(s) measured in the LTEA HepaRG cell culture assay. It is a marker of Cell proliferation, survival, death.Data from the assay component LTEA_HepaRG_TNFRSF1A was analyzed into 1 endpoint. […]
Active and inactive are the calls of the source. The calls were made as follows: active = hit-call score of the fitted dose curve at least 0.9, where 1 is the maximum; inactive = score below 0.9.
Outcomes you can answer with include only these: true (1) for active, false (0) for inactive

Examples from the recorded data:
>>> category_label("O=C(Oc1ccc(Br)cc1)N1CCN2CCC1CC2")
"false (0)"
>>> category_label("CC(C)(C)OOC(=O)c1ccccc1")
"false (0)"
>>> category_label("Cc1cc(N=Nc2ccccc2C)ccc1N")
"false (0)"

State the result this test recorded for CO[C@@H]1[C@H](OC(=O)NC(=O)CCl)CC[C@]2(CO2)[C@H]1[C@@]1(C)O[C@@H]1CC=C(C)C .
false (0)

How did this test come out for CC(C)(OOC(C)(C)c1ccccc1)c1ccccc1 ?
false (0)

State the result this test recorded for N#CC(Br)Br .
false (0)

Which outcome was assigned to CCN(CC)N=O in this test?
false (0)

Please share the test call associated with Cn1cc(-c2ccccc2)c(=O)c(-c2cccc(C(F)(F)F)c2)c1 .
false (0)

# outcome recorded in this test, key = CCC(C)c1ccc(O)cc1 (stereo not given)
false (0)

Test call, this compound: O=[N+]([O-])C(Br)(CO)CO
false (0)

// outcome(item) with item = CCCCC(CC)COC(=O)c1ccc(C(=O)OCC(CC)CCCC)c(C(=O)OCC(CC)CCCC)c1 (stereo not given)
false (0)
